System: TAB113
Experiment: qHTS profiling for inhibitors of Plasmodium falciparum proliferation (AID 504749);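 further: 0% = DMSO vehicle and full inhibition = artemisinin control; nearly all actives have a fitted effect of over 60% in size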
Conditions: P. falciparum in erythrocytes, SYBR Green DNA, 72 h; series mostly up to 28.7 µM
Inconclusive results are not listed. Active and inactive are the calls of the source. The call rests on the fitted dose curve; in most records, active means well fitted inhibition curve with a large enough effect; inconclusive means small, poorly fitted or top-dose-only effect; inactive means flat fitted curve, though single readings scatter.
Quantity name: outcome

Some solved cases for reference:
CCN(CC)S(=O)(=O)c1ccc(C(=O)O)cc1 = inactive
NS(=O)(=O)c1ccc(NC(=O)CCC(=O)O)cc1 = inactive
CCN(CC)CCOC(=O)C(c1ccccc1)c1ccccc1 = inactive
Cc1ccc(S(=O)(=O)NC(=O)NC2CCCCC2)cc1 = inactive
COc1cc(O)cc(O)c1 = inactive

[in] // returns reported outcome for input `CC(C)C[C@@H](N)C(=O)O`
[out] inactive

[in] // returns reported outcome for input `COc1ccc(O)cc1`
[out] inactive

====

Assay: qHTS profiling for inhibitors of Plasmodium falciparum proliferation (AID 504749);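 further: 0% = DMSO vehicle and full inhibition = artemisinin control; nearly all actives have a fitted effect of over 60% in size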
Settings: P. falciparum in erythrocytes, SYBR Green DNA, 72 h; at 28.7 µM (top of the series); parasite line A
Results filed as inconclusive are left out.
Quantity name: activity, negative = inhibition (%)
# number only, unit % dropped from output

N[C@@H](Cc1ccc(O)cc1)C(=O)O = 13.6
C[C@@H](N)C(=O)O = 26.2
C[C@@H]1O[C@@H](OC[C@H]2O[C@@H](Oc3c(-c4ccc(O)c(O)c4)oc4cc(O)cc(O)c4c3=O)[C@H](O)[C@@H](O)[C@@H]2O)[C@H](O)[C@H](O)[C@H]1O = 3.3
NNc1nnc(NN)c2ccccc12 = 11.4
COC(=O)c1cccnc1 = 7.8
c1ccc2[nH]ccc2c1 = 15.1
C=CCNC(N)=S = 5.67
O=C(O)c1ccccc1OP(=O)(O)O = 4.92

[in] // returns reported activity, negative = inhibition for input `CC(=O)OCC(COC(C)=O)OC(C)=O`
[out] 4.58

[in] // returns reported activity, negative = inhibition for input `NC(=O)c1ccc([N+](=O)[O-])cc1Cl`
[out] -8.53

====

Test system: UISO
Assay: qHTS assay to identify novel small-molecules to repurpose for Merkel cell carcinoma treatment (AID 1296009); further: on the % scale 0 is the no-effect control and ±100 the full control effect; nearly all actives have a fitted effect of over 60% in size
Conditions: MCC and control cell lines, CellTiter-Glo viability, 72 h; at 16.1 µM (top of the series); series mostly up to 46 µM
Inconclusive results are not listed. The source made the active and inactive calls. Calls come from the whole dose curve; as a rule, active = well fitted inhibition curve with a large enough effect; inconclusive = small, poorly fitted or top-dose-only effect; inactive = flat fitted curve, though single readings scatter.
Quantity name: outcome

Some solved cases for reference:
CNc1c2c(nn1C)CCCC2 = inactive
COC(=O)c1ccccc1C(=O)c1ccc(OCCN2CCCCC2)cc1 = inactive
CCOC(=O)OC(C)OC(=O)[C@@H]1N2C(=O)[C@@H](NC(=O)[C@H](N)c3ccccc3)[C@H]2SC1(C)C (stereo partly specified) = inactive
CC(=O)Oc1cccc(O)c1 = inactive
OCCN1C[C@H](O)[C@@H](O)[C@H](O)[C@H]1CO = inactive

[in] // returns reported outcome for input `Cc1cc(OI)c(C(C)C)cc1-c1cc(C(C)C)c(OI)cc1C`
[out] inactive

[in] // returns reported outcome for input Cc1ccc2c(c1)c1c3n2CCNC3CCC1 (stereo unspecified)
[out] inactive

[in] // returns reported outcome for input C[C@@H](c1ncncc1F)C(O)(Cn1cncn1)c1ccc(F)cc1F (stereo partly specified)
[out] inactive

====

Assay: NCATS anti-infectives library activity on HEK293 viability as a counter-qHTS vs the C. elegans viability qHTS (AID 1745854);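 further: HEK293 cells exposed to compounds for 24 hr before the viability read; on the % scale 0 is the no-effect control and ±100 the full control effect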
Details: HEK293 viability counter-screen; series mostly up to 41.8 µM
Records with an inconclusive call do not appear. Activity calls are given as the source filed them. Calls follow the shape of the dose curve; as a rule, active = well fitted cell-killing curve with a large enough effect; inconclusive = small, poorly fitted or top-dose-only effect; inactive = flat fitted curve, though single readings scatter.
Quantity name: outcome

Some solved cases for reference:
CCOC(=O)[C@H](CCc1ccccc1)N[C@@H](C)C(=O)N1Cc2cc(OC)c(OC)cc2C[C@H]1C(=O)O = inactive
CCN[C@H]1CN(CCCOC)S(=O)(=O)c2sc(S(N)(=O)=O)cc21 = inactive
Cc1cc(O)cc(C)c1Cl = inactive
COc1ccc2cc(CCC(C)=O)ccc2c1 = inactive
OCc1ccc(Cl)cc1Cl = inactive
CC(=O)N[C@H]1[C@H]([C@H](O)[C@H](O)CO)OC(C(=O)O)=C[C@@H]1N=C(N)N = inactive

// below: outcome requested for another compound
[in] // returns reported outcome for input `O=c1[nH]c(=O)n([C@H]2C[C@H](O)[C@@H](CO)O2)cc1I`
[out] inactive
